- PROCEDURE DETAILS: Inhibition of GST tagged PDE2 (unknown origin) assessed as reduction in FAM-cAMP hydrolysis pre-incubated for 5 mins before FAM-cAMP addition and measured after 30 mins by IMAP assay
- Parameters: species or system Homo sapiens
Listed below: pIC50 values for each entry.
Please give the numeric answer without any surrounding text.

Example entries and their recorded answers appear below.
CNC(=O)c1ccc2nc(C)c3nnc(-c4cc(OC(C)(C)C)ccc4Cl)n3c2c1    9.16
CNC(=O)c1ccc2nc(C)c3nnc(-c4ccccc4Cl)n3c2c1    8.55
Cc1nc2ccc(C(=O)NC(C)(C)C)cc2n2c(-c3cc(OC(C)(C)C)ccc3Cl)nnc12    8.35
COc1ccc(Cl)c(-c2nnc3c(C)nc4ccc(C(=O)NCC(C)C)cc4n23)c1    9.42
Cc1nc2ccc(C(=O)NC(C)(C)C)cc2n2c(-c3cc(F)ccc3Cl)nnc12    9.3
Cc1nc2ccc(C(=O)NCC(C)C)cc2n2c(-c3cc(OC(C)(C)C)ccc3Cl)nnc12    8.88

Read the next record carefully.
// recorded pIC50 for Cc1nc2ccc(C(=O)NC34CC5CC(CC(C5)C3)C4)cc2n2c(-c3ccccc3Cl)nnc12 : 9.77

Numbers sourced from ChEMBL document CHEMBL4145676.
